- test: A CellTox Green Cytotoxicity Assay to monitor cytotoxicity in HEK293 cells - 40 hour (AID 1224871); also: nearly all actives have a fitted effect of over 45% in size
- test parameters: CellTox Green fluorescence; series mostly up to 76.8 µM
Results filed as inconclusive are left out. The source made the active and inactive calls. Calls follow the shape of the dose curve; as a rule, active = well fitted activation curve with a large enough effect in the repeat runs; inconclusive = weak or mixed curves; inactive = flat fitted curve, though single readings scatter.
Could you please pick one outcome from this set? T = active, F = inactive

Exam item: What outcome does the record of this test show for `CCCOc1sc(C(=O)N2CCC(c3cc(CN)ccc3F)CC2)c(C)c1Br` ?
Marked response: T

Exam item: What outcome does the record of this test show for `O=C(O)Cc1ccc(OCCNC[C@H](O)c2ccccc2)cc1` ?
Marked response: F

Exam item: What outcome does the record of this test show for CC1=CP(=O)(c2ccccc2)CC1 (centres undefined) ?
Marked response: F

Exam item: What outcome does the record of this test show for `CC(C)CCOCCC(C)C` ?
Marked response: F

The values you see were collected from PubChem BioAssay (Tox21).
